B1: Hairpin Ribozyme (parent)
chain: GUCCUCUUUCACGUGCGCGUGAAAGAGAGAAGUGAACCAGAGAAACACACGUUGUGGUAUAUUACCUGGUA

variants of: B1; experiment: self-cleavage, relative activity (ratio to wild type); higher = more cleavage; co-transcriptional
outcome measure: self-cleavage

[[record]]
var = "G19A G51U"
recorded_value = 0.881

[[record]]
var = "A11U G69A"
recorded_value = 0.402

[[record]]
var = "C38G U52C"
recorded_value = 0.224

[[record]]
var = "G13A G54U"
recorded_value = 0.42

[[record]]
var = "C16U A61G"
recorded_value = 0.148

[[record]]
var = "G13U G27U"
recorded_value = 0.215

[[record]]
var = "C18G A64G"
recorded_value = 0.463

[[record]]
var = "A49C A71U"
recorded_value = 0.27

[[record]]
var = "G69A U70A"
recorded_value = 0.434

[[record]]
var = "A23U U62G"
recorded_value = 0.171

[[record]]
var = "C6U U60A"
recorded_value = 0.732

[[record]]
var = "A22U U58G"
recorded_value = 0.769

[[record]]
var = "G42A C48G"
recorded_value = 0.127

[[record]]
var = "U33A A43G"
recorded_value = 0.169

[[record]]
var = "C4U C10A"
recorded_value = 0.177

[[record]]
var = "C48G G57C"
recorded_value = 0.169

[[record]]
var = "U63G U70C"
recorded_value = 0.161

[[record]]
var = "U5G U52G"
recorded_value = 0.255

[[record]]
var = "C18U C65U"
recorded_value = 0.373

[[record]]
var = "C38A U67C"
recorded_value = 0.0697

[[record]]
var = "G1U G42C"
recorded_value = 0.0939

[[record]]
var = "A59C A64G"
recorded_value = 0.1

[[record]]
var = "G27U G57C"
recorded_value = 0.159

[[record]]
var = "G13A A41U"
recorded_value = 0.964

[[record]]
var = "U8C G42C"
recorded_value = 0.187

[[record]]
var = "G1U U70A"
recorded_value = 0.111

[[record]]
var = "U33A A61G"
recorded_value = 0.0674

[[record]]
var = "U8A A71C"
recorded_value = 1.23

[[record]]
var = "C3G U20C"
recorded_value = 0.302

[[record]]
var = "C48G A64C"
recorded_value = 0.242

[[record]]
var = "A45C G56A"
recorded_value = 0.144

[[record]]
var = "G13C G25U"
recorded_value = 0.436

[[record]]
var = "G40U U60A"
recorded_value = 0.191

[[record]]
var = "U8G U20C"
recorded_value = 0.425

[[record]]
var = "A31G G32C"
recorded_value = 0.0299

[[record]]
var = "C38G A64G"
recorded_value = 0.118

[[record]]
var = "G13U G32A"
recorded_value = 0.183

[[record]]
var = "A45G G68U"
recorded_value = 0.223

[[record]]
var = "A23U C66A"
recorded_value = 0.294

[[record]]
var = "G27U A44U"
recorded_value = 0.169

[[record]]
var = "A31G G40C"
recorded_value = 0.247

[[record]]
var = "A61U U70G"
recorded_value = 0.261

[[record]]
var = "A47U G51U"
recorded_value = 0.166

[[record]]
var = "A26U A30C"
recorded_value = 0.205

[[record]]
var = "U2C U55C"
recorded_value = 0.0641

[[record]]
var = "G1C C66G"
recorded_value = 0.0728


Value source: the RNAGym collection of RNA variant scans (doi:10.7554/elife.80360)
